# Tested on: plasma esterase
# EXPERIMENTAL_SETUP: rat plasma, test compound 1 μM (*), 37° C., 15 minutes
Marks after values point to notes of the source that are not given here.
# Lookup of reported Residual rate keyed by entry

# COMPOUND, Residual rate
rows = [
    ("CCCCOc1nc(N)c2nc(O)n(Cc3cccc(CC(=O)OCCF)c3)c2n1 [Example 70]", "0* %"),
    ("COC(=O)c1cccc(CSc2nc(N)c3nc(O)n(Cc4ccccc4)c3n2)c1 [Example 103]", "6* %"),
    ("COC(=O)CCc1nc(N)c2nc(O)n(Cc3ccccc3)c2n1 [Example 61]", "0* %"),
    ("CCCCOc1nc(N)c2[nH]c(=O)n(Cc3cccc(CC(=O)OCC)c3)c2n1 [Example 80]", "0* %"),
    ("CCCCOc1nc(N)c2nc(O)n(Cc3ccc(CC(=O)OCCN4CCOCC4)cc3)c2n1 [Example 73]", "4* %"),
    ("CCOC(=O)COc1nc(N)c2nc(O)n(Cc3ccccc3)c2n1 [Example 65]", "0* %"),
    ("CCOC(=O)CCc1nc(N)c2nc(O)n(Cc3ccccc3)c2n1 [Example 62]", "0* %"),
    ("CCCCOc1nc(N)c2nc(O)n(Cc3ccc(CC(=O)OC(C)C)cc3)c2n1 [Example 21]", "0* %"),
    ("COC(=O)COc1nc(N)c2nc(O)n(Cc3ccccc3)c2n1 [Example 64]", "0* %"),
    ("CCCCOc1nc(N)c2nc(O)n(Cc3ccc(CC(=O)OCCO)cc3)c2n1 [Example 71]", "0* %"),
    ("CCCCOc1nc(N)c2nc(O)n(Cc3ccc(CC(=O)OCC)cc3)c2n1 [Example 68]", "0* %"),
    ("CCCCOc1nc(N)c2nc(O)n(Cc3ccc(CC(=O)SCC)cc3)c2n1 [Example 75]", "0* %"),
    ("CCCCOc1nc(N)c2nc(O)n(Cc3ccc(CC(=O)SC)cc3)c2n1 [Example 74]", "0* %"),
]
